Provide the reported IC50 of each item.
Tested on: NCI-N87
Assay: Cell growth inhibition assay (CellTiter-Glo), stomach cancer cell line NCI-N87
Assay type: cell-based
Settings: Homo sapiens; NCI-N87 cells, 96 hours
Description: The inhibitory effects of the compounds of the present invention against the growth of cancer cells were evaluated as shown below. The cancer cell lines including stomach cancer cell line (NCI-N87) and breast cancer cell line (MDA-MB-468) were cultured under the protocol provided by each supplier. […] Subsequently, the cells were observed under microscope and drug precipitation and particular findings were investigated and recorded. […]
Unit µM implied. Number only.

*Q* // query IC50 value for entry `COc1cc(Cl)cc(Oc2cc(NC(=O)c3cc4cc5c(cc4s3)OCC[C@@H]5S(C)(=O)=O)cc(Cl)n2)c1`
*A* 0.018

*Q* One more compound: `CN1CCN(S(C)(=O)=O)c2cc3cc(C(=O)Nc4cc(Cl)nc(Oc5ccc(Cl)cc5)c4)sc3cc21`
*A* 0.027

*Q* One more compound: `CS(=O)(=O)N1CCNc2cc3sc(C(=O)Nc4cc(Cl)nc(Oc5ccc(Cl)cc5)c4)cc3cc21`
*A* 0.0091

*Q* One more compound: `CC(C)(c1ccc(Cl)cc1)c1cc(Cl)cc(NC(=O)c2cc3cc4c(cc3s2)OCCN4S(C)(=O)=O)c1`
*A* 0.019

###

Provide the reported IC50 of each item.
Target: STAT3 (Homo sapiens, UniProt P40763)
Construct: plasmid pSTAT3-TA-luc), which contains a stably operating STAT3 promoter; endogenous in cells
Sequence (P40763 whole entry): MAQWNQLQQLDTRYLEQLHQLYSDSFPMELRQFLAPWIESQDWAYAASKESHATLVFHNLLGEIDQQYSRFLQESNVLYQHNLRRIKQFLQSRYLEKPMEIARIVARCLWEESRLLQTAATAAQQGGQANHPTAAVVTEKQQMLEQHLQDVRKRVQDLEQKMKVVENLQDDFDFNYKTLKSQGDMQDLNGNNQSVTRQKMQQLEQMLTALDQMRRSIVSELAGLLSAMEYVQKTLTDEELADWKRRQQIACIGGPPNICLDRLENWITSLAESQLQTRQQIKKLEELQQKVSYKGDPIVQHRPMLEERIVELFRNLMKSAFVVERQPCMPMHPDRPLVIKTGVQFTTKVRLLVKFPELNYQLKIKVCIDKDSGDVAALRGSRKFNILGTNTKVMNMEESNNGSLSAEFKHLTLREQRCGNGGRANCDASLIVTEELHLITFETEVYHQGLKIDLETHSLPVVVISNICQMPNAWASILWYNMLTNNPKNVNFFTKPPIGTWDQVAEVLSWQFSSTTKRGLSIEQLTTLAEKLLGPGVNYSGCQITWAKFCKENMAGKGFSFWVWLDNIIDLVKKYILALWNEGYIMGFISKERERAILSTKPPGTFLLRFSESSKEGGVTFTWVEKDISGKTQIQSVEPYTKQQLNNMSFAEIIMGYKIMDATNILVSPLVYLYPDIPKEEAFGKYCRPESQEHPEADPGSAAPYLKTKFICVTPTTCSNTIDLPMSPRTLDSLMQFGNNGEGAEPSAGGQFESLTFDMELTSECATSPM
Assay: STAT3 reporter gene (luciferase) assay in LNCaP stable cell line stimulated with IL-6
Assay type: cell-based
Conditions: LNCaP stable cell line (pSTAT3-TA-luc), IL-6 10 ng/mL, 24 hours

*Q* # query: IC50 | item CS(=O)(=O)C1CCOc2cc3sc(C(=O)Nc4cc(Cl)nc(Oc5cc(Cl)cc(Cl)c5)c4)cc3cc21 (stereo not shown) [Example 18] | system: STAT3 (Homo sapiens, UniProt P40763)
*A* 0.015 µM

*Q* One more compound: CS(=O)(=O)C1CCOc2cc3sc(C(=O)Nc4cc(Cl)nc(Oc5ccc(Cl)cc5)c4)cc3cc21 (racemic) [Example 8]
*A* 0.024 µM

*Q* One more compound: CS(=O)(=O)C1CCC(=O)c2cc3sc(C(=O)Nc4cc(Cl)nc(Oc5ccc(Cl)cc5)c4)cc3cc21 (stereo not shown) [Example 51]
*A* 0.1 µM

*Q* One more compound: Cc1cccc(Oc2cc(NC(=O)c3cc4cc5c(cc4s3)OCCC5S(C)(=O)=O)cc(Cl)n2)c1F (stereo not shown) [Example 41]
*A* 0.011 µM

*Q* One more compound: C[C@@]1(S(C)(=O)=O)CCOc2cc3sc(C(=O)Nc4cc(Cl)nc(Oc5ccc(Cl)cc5)c4)cc3cc21 [Example 48]
*A* 0.15 µM

*Q* One more compound: CS(=O)(=O)C1CCOc2cc3sc(C(=O)Nc4cc(Cl)nc(Oc5cc(Cl)ccc5F)c4)cc3cc21 (stereo not shown) [Example 35]
*A* 0.01 µM

*Q* One more compound: CS(=O)(=O)C1CCCc2cc3sc(C(=O)Nc4cc(Cl)nc(Oc5ccc(Cl)cc5)c4)cc3cc21 (stereo not shown) [Example 10]
*A* 0.0026 µM
